- Test system: P94_40
- assay-explanation: qHTS profiling for inhibitors of Plasmodium falciparum proliferation (AID 504749); also: nearly all actives have a fitted effect of over 60% in size
- condition-notes: P. falciparum in erythrocytes, SYBR Green DNA, 72 h; series mostly up to 28.7 µM
Results filed as inconclusive are left out. Active and inactive are the calls of the source. Calls follow the shape of the dose curve; as a rule, active = well fitted inhibition curve with a large enough effect; inconclusive = small, poorly fitted or top-dose-only effect; inactive = flat fitted curve, though single readings scatter.
Just give me one of these, please: True = active, False = inactive

compound: COP(=S)(OC)SCN1C(=O)c2ccccc2C1=O
cat: False
//
compound: CCCCCCCCCC(=O)O[C@H]1CC[C@H]2[C@@H]3CCC4=CC(=O)CC[C@@H]4[C@H]3CC[C@]12C
cat: False
//
compound: Clc1ccc2c(c1)C(c1ccccc1)=NCc1nncn1-2
cat: False
//
compound: CN1C(=O)CCS(=O)(=O)C1c1ccc(Cl)cc1 (stereo not given)
cat: False
//
compound: COc1c2c(cc3c1OCO3)CCN(C)C2
cat: False
//
compound: O=C(N/N=C/c1ccc([N+](=O)[O-])o1)c1cc([N+](=O)[O-])cc([N+](=O)[O-])c1O
cat: True

Query :: Test call for this compound, please: CN1C(=O)CC(=O)N(c2ccccc2)c2cc(Cl)ccc21
Result :: False

Query :: And what about the compound O=C1c2ccccc2C(=O)c2ccccc21 ?
Result :: False

Query :: And what about the compound CN1CCC(O)(c2ccc(F)cc2)C(C(=O)c2ccc(F)cc2)C1 (stereo not given) ?
Result :: False

Query :: And what about the compound O=C1CN=C(c2ccccc2)c2cc([N+](=O)[O-])ccc2N1 ?
Result :: False

Query :: And what about the compound CN1C[C@H](C(=O)N[C@]2(C)O[C@@]3(O)[C@@H]4CCCN4C(=O)[C@H](Cc4ccccc4)N3C2=O)C=C2c3cccc4[nH]cc(c34)C[C@H]21 ?
Result :: True

====

- System: CP238
- assay-explanation: qHTS profiling for inhibitors of Plasmodium falciparum proliferation (AID 504749); also: nearly all actives have a fitted effect of over 60% in size
- condition-notes: P. falciparum in erythrocytes, SYBR Green DNA, 72 h; series mostly up to 28.7 µM
Records with an inconclusive call do not appear. The source made the active and inactive calls. The call rests on the fitted dose curve; in most records, active means well fitted inhibition curve with a large enough effect; inconclusive means small, poorly fitted or top-dose-only effect; inactive means flat fitted curve, though single readings scatter.
Just give me one of these, please: yes (active), no (inactive)

A selection of reference data follows.
molecule: Cc1ncsc1CCCl
cat: no
--
molecule: Clc1ccc2c(c1)C(c1ccccc1)=NCc1nncn1-2
cat: no
--
molecule: C[C@]12CC[C@@H]3c4ccc(OC(=O)N(CCCl)CCCl)cc4CC[C@H]3[C@@H]1CC[C@@H]2O
cat: no
--
molecule: CCCC(C)(COC(N)=O)COC(N)=O
cat: no
--
molecule: CC(C)NC(C)C
cat: no

Query :: Test call for this molecule, please: CCC1(c2ccccc2)C(=O)N(COC)C(=O)N(COC)C1=O
Result :: no

Query :: And what about the molecule CC(C)c1cccc(C(C)C)c1O ?
Result :: no

Query :: And what about the molecule CN1C(=O)COc2c(C(=O)NC3CN4CCC3CC4)cc(Cl)cc21 (stereo not drawn) ?
Result :: no

Query :: And what about the molecule O=c1[nH]oc2c1CCNC2 ?
Result :: no

Query :: And what about the molecule O=C(Nc1ccc(Br)cc1)c1cc(Br)cc(Br)c1O ?
Result :: no

Query :: And what about the molecule COC1CC(=C(c2cccs2)c2cccs2)C[N+](C)(C)C1 (stereo not drawn) ?
Result :: yes

Query :: And what about the molecule CNC(C)(C)Cc1ccccc1 ?
Result :: no

Query :: And what about the molecule O=C1Nc2ccc(Cl)cc2C(c2ccccc2)=NC1O (stereo not drawn) ?
Result :: no
